Assay: NCI Yeast Anticancer Drug Screen. Data for the mec2-1 strain (AID 157)
Conditions: S. cerevisiae mec2-1 strain, at 50.0 µM (retest, dose inferred, filed as 5.0), stronger effect = higher value
Experimental: Growth inhibition of yeast strains with defined genetic alterations is measured as a screen for potential anti-cancer activity. Selected strains with alterations in DNA damage repair or cell cycle control were exposed to compounds and growth inhibition was measured relative to vehicle treated controls. The strain used in this assay is mec2-1
About 79,000 compounds went through this panel and 15% of them were active in at least one assay; those are over-represented in the sample as a whole.
property-label: growth inhibition (%)
Dear colleague, please return just the value in %, with no unit written.

c1cc[c]([Sn]([c]2ccccc2)([c]2ccccc2)[CH]2CCCCC2)cc1 : 94

Ask: // fetch growth inhibition given entry `C/C(=C\c1ccc2c(c1)OCO2)[N+](=O)[O-]`
Reply: 100

Ask: Report measured growth inhibition; entry is `c1ccc(N=c2nc(N3CCOCC3)ss2)cc1`
Reply: 100

Ask: Query growth inhibition for `CC1(C)CCC(C)(C)c2cc(Cl)c(O)cc21`
Reply: 2

Ask: Tell me its growth inhibition given `Nc1ccccc1C(=O)OCCc1ccccc1` as the entry.
Reply: 99

Ask: Give growth inhibition for `CN(C)C(=O)Oc1c(Cl)cc(Cl)c(Cl)c1Cl`
Reply: 9

Ask: State, in one line, measured growth inhibition of `c1c(N2CCOCC2)ssc1=[N+]1CCOCC1`
Reply: 3

Ask: Name the recorded growth inhibition of the item `CCS(=O)(=O)[O][Sn]([CH2]C)([CH2]C)[O]S(=O)(=O)CC` in your answer.
Reply: 85

Ask: Give me measured growth inhibition, please, for this molecule: `CN(C)CCC(C(=O)C(Br)Br)(c1ccccc1)c1ccccc1`
Reply: 38

Ask: Specify reported growth inhibition for the molecule shown: `ClCCN(CCCl)c1ccc(CNCCCNCc2ccc(N(CCCl)CCCl)cc2)cc1`
Reply: 7

Ask: Report measured growth inhibition; entry is `Nc1ccc(Cl)cc1C(=O)c1ccccc1`
Reply: 86

Ask: Read off the recorded growth inhibition for `C[CH2][Sn]([CH2]C)([CH2]C)[O]C(=O)CO`
Reply: 99

Ask: Return reported growth inhibition. Input molecule: `c1ccc(P(CC[As](c2ccccc2)c2ccccc2)CC[As](c2ccccc2)c2ccccc2)cc1`
Reply: 81

Ask: Output measured growth inhibition for this item: COC12[C@@H]3N[C@@H]3CN1C1=C(C(=O)C(NCCSSCCNC3=C(C)C(=O)C4=C(C3=O)C(COC(N)=O)[C@]3(OC)C5N[C@@H]5CN43)=C(C)C1=O)[C@@H]2COC(N)=O (stereo not given in full)
Reply: 82

Ask: State, in one line, measured growth inhibition of CC12CCC(C1)C(C)(C)C2OC(=O)c1ccccc1N (stereo not given)
Reply: -26

Ask: Supply measured growth inhibition of `O=[N+]([O-])c1cc(S(=O)(=O)F)ccc1Cl` in your reply.
Reply: 62

Ask: Note down growth inhibition recorded for CC(C)(C)OC(=O)NC(CSC(c1ccccc1)(c1ccccc1)c1cccs1)C(=O)O (stereo not given)
Reply: 99

Ask: Give growth inhibition for `Nc1ccc(N=Nc2ccccc2)cc1`
Reply: 37

Ask: Provide growth inhibition value for the following molecule: C[N+]1(CCCl)CC[N+](C)(CCCl)CC1 (stereo not given)
Reply: 99
